# protocol: Stability
# Type: physicochemical
# conditionDetails: qualitative statement

>  <structureSmiles>
Cc1cc(NC(=O)c2ccccc2)n(-c2ccccc2)n1

>  <stability in pH 8 buffer (in words)>
highly stable

$$$$
>  <structureSmiles>
COc1ccc(Cn2nc(C)cc2/C=C/c2c(F)cccc2F)cc1

>  <stability in pH 8 buffer (in words)>
highly stable

$$$$

* * *

# testTarget: WNV NS2B-NS3 proteinase (West Nile virus, UniProt Q9Q6P4)
# Sequence (Q9Q6P4 1506-1683): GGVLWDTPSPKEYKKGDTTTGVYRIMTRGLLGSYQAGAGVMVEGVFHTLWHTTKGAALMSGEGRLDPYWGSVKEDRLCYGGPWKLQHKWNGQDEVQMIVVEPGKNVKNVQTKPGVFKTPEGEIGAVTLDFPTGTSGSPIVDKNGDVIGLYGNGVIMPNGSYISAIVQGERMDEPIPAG
# Sequence (Q9Q6P4 1375-1505): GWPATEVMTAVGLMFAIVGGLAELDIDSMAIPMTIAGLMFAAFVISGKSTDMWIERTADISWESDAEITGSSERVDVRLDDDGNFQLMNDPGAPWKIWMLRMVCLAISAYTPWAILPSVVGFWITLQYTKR
# protocol: WNV NS2B-NS3 proteinase activity assay with Pyr-RTKR-AMC fluorogenic substrate
# Assay type: biochemical
# conditionDetails: qualitative statement

>  <structureSmiles>
COc1ccc(S(=O)(=O)n2nc(OC(=O)c3ccccc3[N+](=O)[O-])cc2N)cc1

>  <testTarget>
WNV NS2B-NS3 proteinase (West Nile virus, UniProt Q9Q6P4)

>  <inhibitory activity (in words)>
inactive

$$$$
>  <structureSmiles>
COc1ccc(S(=O)(=O)n2nc(OC(=O)c3ccccc3OC)cc2N)cc1

>  <testTarget>
WNV NS2B-NS3 proteinase (West Nile virus, UniProt Q9Q6P4)

>  <inhibitory activity (in words)>
inactive

$$$$

src = paper PMC2776708
